experimental-target: human ether-à-go-go-related gene (hERG) potassium channel (human, UniProt Q12809)
Sequence (Q12809 whole entry, looked up): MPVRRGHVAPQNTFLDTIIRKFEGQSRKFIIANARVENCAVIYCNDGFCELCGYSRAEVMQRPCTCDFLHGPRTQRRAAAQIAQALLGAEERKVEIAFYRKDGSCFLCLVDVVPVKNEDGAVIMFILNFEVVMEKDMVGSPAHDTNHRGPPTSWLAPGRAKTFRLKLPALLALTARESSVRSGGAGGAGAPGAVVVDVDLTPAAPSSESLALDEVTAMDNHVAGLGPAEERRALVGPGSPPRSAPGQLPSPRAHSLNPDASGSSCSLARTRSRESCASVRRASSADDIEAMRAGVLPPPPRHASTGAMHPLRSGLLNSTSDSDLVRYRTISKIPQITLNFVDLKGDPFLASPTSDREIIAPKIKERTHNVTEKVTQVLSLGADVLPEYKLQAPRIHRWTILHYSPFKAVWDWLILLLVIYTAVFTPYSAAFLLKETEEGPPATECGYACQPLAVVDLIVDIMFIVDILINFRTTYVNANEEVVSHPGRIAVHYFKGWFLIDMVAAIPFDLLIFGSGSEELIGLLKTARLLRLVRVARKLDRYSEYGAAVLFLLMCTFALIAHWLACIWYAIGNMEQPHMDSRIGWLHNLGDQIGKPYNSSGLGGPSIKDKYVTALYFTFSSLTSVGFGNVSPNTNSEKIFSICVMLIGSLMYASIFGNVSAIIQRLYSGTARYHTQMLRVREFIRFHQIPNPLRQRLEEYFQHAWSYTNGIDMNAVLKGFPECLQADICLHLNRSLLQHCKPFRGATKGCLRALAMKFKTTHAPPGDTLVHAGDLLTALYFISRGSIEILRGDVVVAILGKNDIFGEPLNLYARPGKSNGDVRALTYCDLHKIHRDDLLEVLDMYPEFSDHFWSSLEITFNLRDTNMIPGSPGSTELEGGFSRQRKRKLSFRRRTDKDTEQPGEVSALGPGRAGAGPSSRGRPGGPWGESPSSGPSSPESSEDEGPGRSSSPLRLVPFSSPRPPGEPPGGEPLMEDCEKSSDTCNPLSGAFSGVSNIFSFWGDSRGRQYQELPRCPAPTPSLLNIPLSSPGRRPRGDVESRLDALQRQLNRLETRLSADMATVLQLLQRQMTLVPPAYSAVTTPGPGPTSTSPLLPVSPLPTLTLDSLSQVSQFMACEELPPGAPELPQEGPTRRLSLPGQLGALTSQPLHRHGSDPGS
assay-procedure: primary screen, population patch clamp on CHO cells stably expressing hERG; higher = less effect of the substance
Screen size: about 310,000 compounds; about 14,000 (4.5%) showed an effect of 50% or more. Effects have a minus sign here. For the sample, strong results were picked, then their nearest neighbours and some compounds at random.
measured-attribute: hERG current change (%, negative = inhibition) at 10uM (%)
Respond with the bare value in %.

# count of solved cases: 4
1. Cc1cc(C(=O)NCCN2C(=O)S/C(=C\c3cccs3)C2=O)ccc1[N+](=O)[O-] ... -1.91
2. O=C1CC(N2CCN(C(c3ccccc3)c3ccccc3)CC2)C(=O)N1 (stereo not drawn) ... -0.687
3. COc1ccc(C)cc1NC(=O)CN1CCN(C/C=C/c2ccccc2)CC1 ... -78.3
4. CCC1(CC)NC(=O)N(CC(=O)OCC(=O)c2ccccc2OC)C1=O ... 0.647

[in] Dear colleague, I am looking for the recorded hERG current change (%, negative = inhibition) at 10uM of the following compound: CCN(CC)CCNC(=O)c1cn(CC)c2cc(N3CCN(C(=O)c4ccco4)CC3)c(F)cc2c1=O.Cl
[out] 0.131

[in] Repeat with CC(NC(=O)N(Cc1ccccc1)Cc1ccc2c(c1)OCO2)(C(F)(F)F)C(F)(F)F
[out] 7.8

[in] Request: Cc1ccc(C(=O)OCC(=O)N2CCCC2)cc1
[out] -2.99

[in] How about this compound: COc1ccc(C)cc1NC(=O)CCN1CCN(C/C=C/c2ccccc2)CC1
[out] -77.1

[in] What would you report for COc1cc(CCCN2C(=O)C(=O)NC[C@@H]2CC2CCCCC2)cc(OC)c1OC ?
[out] 4

[in] Would you mind doing CSc1cccc(NC(=S)N(CCC(C)C)C2CCN(C(C)=O)CC2)c1 as well?
[out] -23.3

[in] Please answer likewise for Cc1ccc(C(=O)N2CCCCC2)cc1S(=O)(=O)N1CCOCC1
[out] 22

[in] How about this compound: CC(C)CCN(C(=O)Nc1ccc(Cl)cc1)C1CCN(C(C)C)CC1
[out] -72.1

----------
experimental-target: human ether-à-go-go-related gene (hERG) potassium channel (human, UniProt Q12809)
assay-procedure: primary screen, population patch clamp on CHO cells stably expressing hERG; higher = less effect of the substance
Among all 310,000 compounds or so, about 14,000 (4.5%) showed an effect of 50% or more. Effects have a minus sign here. This is one part of a sample in which strong results are shown more often than they occur.
measured-attribute: hERG current change (%, negative = inhibition) at 10uM

Previously resolved entries follow.
1. CCCCn1cnc2c(c(-c3ccccc3)c(-c3ccccc3)n2Cc2ccco2)c1=N ... -75.1%
2. CCCCn1c(=O)n(Cc2cccc(F)c2)c(=O)c2c1ncn2Cc1ccco1 ... -14.7%
3. N=c1c2c(-c3ccccc3)c(-c3ccccc3)n(Cc3ccco3)c2ncn1CCO ... -71%

[in] Item: COc1ccc(C(CNC(=O)C2CC2)N(C)C)cc1 (centres unmarked) Test system: human ether-à-go-go-related gene (hERG) potassium channel (human, UniProt Q12809) Read-out: hERG current change (%, negative = inhibition) at 10uM Value: ?;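 further: peak tail current of the secondary pulse compared with the same well before compound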
[out] 1.52%

[in] # iterate: CCCOC(=O)C1=C(C)NC2=C(C(=O)C(C(=O)OC)C(C)C2)C1c1ccc(N(CC)CC)cc1 (centres unmarked)
[out] -5.21%

----------
experimental-target: human ether-à-go-go-related gene (hERG) potassium channel (human);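 further: peak tail current of the secondary pulse compared with the same well before compound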
assay-procedure: primary screen, population patch clamp on CHO cells stably expressing hERG; higher = less effect of the substance
Among all 310,000 compounds or so, about 14,000 (4.5%) showed an effect of 50% or more. The effect is printed as a negative number. The entries come from a sample that favours strong results as a whole.
Below is a list of entries, each paired with its recorded hERG current change (%, negative = inhibition) at 10uM value.
Kindly answer with a numeric value in %, unit omitted.

Completed entries (count: 5):
1) O=C(c1ccco1)N1CCN(C(=O)c2ccc(CS(=O)c3ccc(F)cc3)o2)CC1 (centres unmarked) ... 11.8
2) Cc1nc2ccc(S(=O)(=O)NC(C(=O)N3CCCC3)C(C)C)cc2s1 (centres unmarked) ... 7.12
3) O=C(c1ccco1)N1CCN(C(=O)c2ccccc2OCc2ccc(Cl)cc2)CC1 ... -75.9
4) CCCn1c2ccccc2c2cnn(CC(=O)NCCCOC)c(=O)c21 ... -1.43
5) CCCn1c2ccccc2c2cnn(CC(=O)N3CCOCC3)c(=O)c21 ... -13.7

[in] Entry CCCN(CCC)C(=S)Nc1cc(C(=O)OC)ccc1C(=O)OC has what hERG current change (%, negative = inhibition) at 10uM?
[out] -38.2

[in] How about this molecule: O=C(c1ccccc1OCc1ccc(Cl)cc1)N1CCN(c2ccccn2)CC1
[out] -42.4

[in] Moving on to CCCn1c2ccccc2c2cnn(CC(=O)NC3CCCCC3C)c(=O)c21 (centres unmarked)
[out] 11.7

[in] Try this molecule too: Cc1nn(-c2ccccc2)c(C)c1C(=O)NCc1ccccc1F
[out] 3.78

[in] Follow-up item: CCN1CCN(C(=O)c2ccc(COc3cccc(Cl)c3)o2)CC1
[out] -23.7

[in] Request: CCCn1c2ccccc2c2cnn(CC(=O)NCCCN3CCCC(C)C3)c(=O)c21 (centres unmarked)
[out] -70.8

[in] Request: CCCn1c2ccccc2c2cnn(CC(=O)N3CCN(C4CCCCC4)CC3)c(=O)c21
[out] -72.6

[in] Repeat for the following molecule: O=C(OCC(=O)N1CCN(C(=O)c2ccco2)CC1)c1ccccc1OCc1ccc(Cl)cc1
[out] -35.3

[in] Same question for CCCn1c2ccccc2c2cnn(CC(=O)NCCCN3C(C)CCCC3C)c(=O)c21 (centres unmarked) please.
[out] -41.8

[in] What about this molecule? Cc1nn(-c2ccccc2)c(C)c1C(=O)NCc1ccc(S(N)(=O)=O)cc1
[out] 20.1

[in] Can you handle CCC1CCCCN1CCCNC(=O)Cn1ncc2c([nH]c3ccc(C)cc32)c1=O (centres unmarked) next?
[out] -6.66

----------
experimental-target: human ether-à-go-go-related gene (hERG) potassium channel (human, UniProt Q12809);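 further: peak tail current of the secondary pulse compared with the same well before compound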
assay-procedure: primary screen, population patch clamp on CHO cells stably expressing hERG; higher = less effect of the substance
Out of some 310,000 compounds screened, about 14,000 (4.5%) showed an effect of 50% or more. Effects have a minus sign here. What follows is part of a selection rich in strong results, with near analogues and random picks from the rest.
measured-attribute: hERG current change (%, negative = inhibition) at 10uM (%)
Write the number in % without appending the unit.

Solved cases below.
1) O=C(CNC(=S)N(Cc1ccccc1)Cc1cccnc1)NCCc1ccccc1 ... -41.3
2) O=c1c2ccccc2nc(/C=C/c2ccc(Br)cc2)n1CCCO ... 0.999
3) Cc1ccc(N/C=C/C(=O)C(C)(C)C)c(O)c1 ... -5.33
4) O=c1c2ccccc2nc(/C=C/c2ccc([N+](=O)[O-])o2)n1CCCO ... -51.7
5) Nn1c(SCc2ccc([N+](=O)[O-])cc2)nc2ccccc2c1=O ... 17.8

[in] Which hERG current change (%, negative = inhibition) at 10uM is reported for this molecule? COc1ccc(CN(Cc2cccnc2)C(=S)NCCc2ccccc2)cc1OC.O=C(O)C(=O)O
[out] -50.5

[in] Can you handle O=c1c2ccccc2nc(/C=C/c2ccc([N+](=O)[O-])cc2)n1CCCO next?
[out] -57.4

[in] Another molecule to look at: O=c1c2sccc2nc(SCc2ccc([N+](=O)[O-])cc2)n1Cc1ccccn1
[out] -61.6

[in] How about this molecule: Cn1c(/C=C/c2ccc([N+](=O)[O-])o2)nc2ccccc2c1=O
[out] -24.2

----------
Known hERG current change (%, negative = inhibition) at 10uM of a selection of molecules
experimental-target: human ether-à-go-go-related gene (hERG) potassium channel (human);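 further: peak tail current of the secondary pulse compared with the same well before compound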
assay-procedure: primary screen, population patch clamp on CHO cells stably expressing hERG; higher = less effect of the substance
Method: Briefly, Chinese hamster ovary (CHO) cells stably expressing the hERG channel were dislodged from tissue culture flasks and dispensed into PPC plates. […] During the recording, background leak currents were estimated by a 100 ms step to -80 mV from an initial holding potential of -70 mV and subtracted from the subsequent current measurement. The campaign was conducted in two phases using slight differences in recording protocol. […]
In all, about 310,000 compounds went through this assay and about 14,000 (4.5%) showed an effect of 50% or more. The effect is printed as a negative number. What follows is part of a selection rich in strong results, with near analogues and random picks from the rest.
Write the answer as a number in %, unit excluded.

These recorded examples may help you get a feel for the data.
1. Cc1ccc(-c2csc(N3CCN(c4cc5c(cc4Cl)nc(-c4ccncc4)n5CCN4CCCCC4)CC3)n2)cc1 ... 10.5
2. CCOc1cc2c(cc1OCC)C(C(=O)O)C(c1cc(OC)c(OC)c(OC)c1)N(C)C2=O (stereo not drawn) ... 3.02
3. Cc1ccc(-c2csc(N3CCN(c4cc5c(cc4Cl)nc(-c4ccncc4)n5CCOCCO)CC3)n2)cc1 ... 4.81

[in] Look up hERG current change (%, negative = inhibition) at 10uM with human ether-à-go-go-related gene (hERG) potassium channel (human) for this molecule: Cc1csc(N2CCN(c3cc4c(cc3Cl)nc(-c3ccncc3)n4CCCN3CCCC3)CC2)n1
[out] -64.8

[in] Now consider COc1ccc(NC(=O)CSC2=NC(=O)CC(C)=N2)cc1 .
[out] 15.1

Each recorded value in this set is attributed to paper PMC4336329.
